Biological target: EGFR (d746-750) (Homo sapiens (Human), UniProt P00533, DEL746-750)
Assay: Biochemical EGFR inhibition assay, EGFR (d746-750)
Conditions: Caliper mobility shift; 1.0 mM ATP or ATP Km; read-out: Enz EGFR_Exon19-del746-750 IC50
Reported pIC50 values for a set of compounds
Remember the convention: pIC50 equals -log10 of concentration in molar.

Prompt line: Hi! What's the reported pIC50 for CCn1cc(-c2ncnc3cc(OC)c(NC(=O)c4cnn(CCN(C)C)c4)nc23)c(-c2ccccc2)n1 [Example 319] on EGFR (d746-750) (Homo sapiens (Human), UniProt P00533, DEL746-750)?
Response line: 9.15

Prompt line: Ok, now COc1cc2ncnc(-c3cn(C)nc3-c3ccccc3)c2cc1NC(=O)C1(CN(C)C)CC1 [Example 189]
Response line: 8.72

---

Target: pEGFR (Tyr1068) in PC-9 cells (Ex19Del) (Homo sapiens (Human), UniProt P00533, DEL746-750)
Sequence (P00533 other isoform, or with tags, fused parts or gaps del 746-750): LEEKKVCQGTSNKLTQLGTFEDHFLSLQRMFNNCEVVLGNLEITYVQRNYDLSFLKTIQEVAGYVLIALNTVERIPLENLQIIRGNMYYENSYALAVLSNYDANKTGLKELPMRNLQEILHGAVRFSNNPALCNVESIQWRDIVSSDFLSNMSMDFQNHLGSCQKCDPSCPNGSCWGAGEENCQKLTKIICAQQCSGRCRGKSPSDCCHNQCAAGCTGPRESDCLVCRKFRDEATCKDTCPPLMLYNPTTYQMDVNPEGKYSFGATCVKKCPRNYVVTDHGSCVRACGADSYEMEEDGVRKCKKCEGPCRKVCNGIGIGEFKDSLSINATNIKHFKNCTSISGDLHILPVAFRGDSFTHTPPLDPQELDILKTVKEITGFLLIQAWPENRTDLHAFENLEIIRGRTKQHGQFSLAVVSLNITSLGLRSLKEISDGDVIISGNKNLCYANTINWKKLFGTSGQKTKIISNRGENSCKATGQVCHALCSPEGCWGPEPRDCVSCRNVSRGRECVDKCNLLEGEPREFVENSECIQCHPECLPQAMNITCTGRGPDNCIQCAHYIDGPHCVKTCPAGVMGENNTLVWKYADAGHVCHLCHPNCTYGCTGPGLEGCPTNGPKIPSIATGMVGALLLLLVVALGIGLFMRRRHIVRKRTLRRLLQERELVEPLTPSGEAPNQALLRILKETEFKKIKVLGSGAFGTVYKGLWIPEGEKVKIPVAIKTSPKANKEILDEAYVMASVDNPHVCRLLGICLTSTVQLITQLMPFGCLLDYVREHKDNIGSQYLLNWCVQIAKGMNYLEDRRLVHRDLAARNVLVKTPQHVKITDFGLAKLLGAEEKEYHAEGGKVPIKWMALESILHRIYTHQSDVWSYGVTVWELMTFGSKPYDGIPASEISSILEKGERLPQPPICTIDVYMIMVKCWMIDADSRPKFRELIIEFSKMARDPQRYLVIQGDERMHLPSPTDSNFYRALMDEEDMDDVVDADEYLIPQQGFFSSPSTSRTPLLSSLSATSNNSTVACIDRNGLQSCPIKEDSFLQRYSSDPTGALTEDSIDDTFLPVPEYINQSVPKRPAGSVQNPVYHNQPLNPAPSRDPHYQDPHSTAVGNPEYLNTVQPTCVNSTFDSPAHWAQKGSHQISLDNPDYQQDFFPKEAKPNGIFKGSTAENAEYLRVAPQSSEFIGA
Experiment: PC-9 pEGFR AlphaLISA assay
Conditions: 4 hours incubation, p-EGFR (Tyr1068) AlphaLISA, read-out: Ext pEGFR_PC-9 Ex19Del IC50
Protocol: PC-9/A431 pEGFR AlphaLISA Assays Inhibitory effects of compounds were evaluated in cellular assays that measure level of intracellular phosphorylation of EGFR in PC-9 (ECACC, #90071810, Milipore/Sigma) and A431 cell lines (ATCC, CRL-1555) using AlphaLISA sureFire ultra p-EGFR (Tyr1068) assay kit (PerkinElmer, ALSU-PEGFR-A50K). […] On the next day, the plate was read the Envision using standard AlphaLisa settings. […]
molecules and their reported pIC50
Formally, pIC50 is defined as -log10 of the concentration c, with c in mol/L.

Reference set (5 entries):
Cc1nnc([C@H](C)Oc2nc3c(-c4cn(C)nc4-c4ccccc4)ncnc3cc2OC2CC2)o1 (single isomer, unassigned) :: 7.60
COc1cc2ncnc(-c3cn(C)nc3-c3ccccc3)c2cc1O[C@@H]1CCOC1 :: 8.25
CCOc1cc2ncnc(-c3cn(CC)nc3-c3ccccc3)c2cc1CO :: 8.52
COc1cc2ncnc(-c3cn(CC(F)F)nc3-c3ccccc3)c2cc1OC(=O)N1CCN(C)C[C@@H]1C :: 8.80
COc1cc2ncnc(-c3c(-c4ccccc4)nn(C)c3C)c2cc1OC(=O)N1CCN(C)C[C@@H]1C :: 6.49

Prompt line: Form entry - test system: pEGFR (Tyr1068) in PC-9 cells (Ex19Del) (Homo sapiens (Human), UniProt P00533, DEL746-750); read-out: pIC50; molecule: CCn1cc(-c2ncnc3cc(OC)c(NC(=O)[C@]45COC[C@H]4C5)nc23)c(-c2ccccc2)n1 (single isomer, unassigned)
Response line: 9.40

Prompt line: Again, but for CCn1cc(-c2ncnc3cc(OC)c(N4CCOCC4)cc23)c(-c2ccc(F)cc2)n1
Response line: 8.32

Prompt line: Please answer likewise for COc1cc2ncnc(-c3cn(C)nc3-c3ccccc3)c2cc1OC1COCCOC1
Response line: 7.98

---

Target: EGFR L858R (Homo sapiens (Human), UniProt P00533, L858R)
Sequence (P00533 25-1210 L858R): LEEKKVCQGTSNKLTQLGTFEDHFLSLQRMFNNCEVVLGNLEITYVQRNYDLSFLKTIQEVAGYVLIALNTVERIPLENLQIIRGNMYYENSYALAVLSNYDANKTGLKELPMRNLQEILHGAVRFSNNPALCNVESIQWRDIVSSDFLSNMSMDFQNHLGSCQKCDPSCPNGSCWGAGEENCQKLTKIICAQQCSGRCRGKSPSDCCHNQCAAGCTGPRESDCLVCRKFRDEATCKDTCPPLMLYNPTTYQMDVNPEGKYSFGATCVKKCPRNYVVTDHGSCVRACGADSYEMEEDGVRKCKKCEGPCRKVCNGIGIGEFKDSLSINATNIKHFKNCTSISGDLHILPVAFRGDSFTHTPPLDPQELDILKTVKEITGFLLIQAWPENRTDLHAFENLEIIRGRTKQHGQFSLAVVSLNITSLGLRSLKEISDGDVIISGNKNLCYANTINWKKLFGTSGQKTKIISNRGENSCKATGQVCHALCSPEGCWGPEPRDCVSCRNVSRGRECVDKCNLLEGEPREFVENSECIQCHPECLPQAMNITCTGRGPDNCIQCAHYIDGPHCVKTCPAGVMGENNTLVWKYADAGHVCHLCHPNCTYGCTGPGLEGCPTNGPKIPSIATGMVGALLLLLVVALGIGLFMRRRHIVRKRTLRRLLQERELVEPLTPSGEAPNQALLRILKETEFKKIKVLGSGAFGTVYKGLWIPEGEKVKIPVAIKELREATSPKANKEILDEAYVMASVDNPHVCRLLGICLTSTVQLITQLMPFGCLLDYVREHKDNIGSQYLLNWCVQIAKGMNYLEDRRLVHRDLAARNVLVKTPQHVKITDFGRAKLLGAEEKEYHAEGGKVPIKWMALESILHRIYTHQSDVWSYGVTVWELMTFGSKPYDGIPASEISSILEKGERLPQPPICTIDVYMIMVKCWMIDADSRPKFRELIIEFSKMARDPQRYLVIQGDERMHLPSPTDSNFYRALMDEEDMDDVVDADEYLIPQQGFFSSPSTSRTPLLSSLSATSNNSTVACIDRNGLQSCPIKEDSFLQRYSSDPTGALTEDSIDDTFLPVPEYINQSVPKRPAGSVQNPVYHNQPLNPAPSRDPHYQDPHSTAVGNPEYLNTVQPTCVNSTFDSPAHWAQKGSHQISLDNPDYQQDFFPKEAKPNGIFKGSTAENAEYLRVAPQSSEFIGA
Assay: Biochemical EGFR inhibition assay, EGFR L858R
Conditions: Caliper mobility shift; 1.0 mM ATP or ATP Km; read-out: Enz EGFR_L858R IC50
Entries annotated with measured IC50
Report the value in nM with no unit label.

Worked set:
COc1cc2ncnc(-c3cn(C)nc3-c3ccccc3)c2nc1O[C@H](C)c1cocn1 :: 4.2
COc1cc2ncnc(-c3cn(C)nc3-c3ccccc3)c2nc1NC(=O)[C@@]1(C(F)(F)F)CCN(C)C1 (single isomer, unassigned) :: 6.9
COc1cc2ncnc(-c3cn(C(F)F)nc3-c3ccccc3)c2nc1NC(=O)C12CC(C1)C2 :: 2.1

Prompt line: Hello, I am looking for reported IC50 with EGFR L858R (Homo sapiens (Human), UniProt P00533, L858R) for CCOc1cc2ncnc(-c3cn(C)nc3-c3ccccc3)c2cc1NC(=O)c1ccc(C2CC2)nc1 . Could you help?
Response line: 0.9

Prompt line: Also CCOc1cc2ncnc(-c3cn(C)nc3-c3ccccc3)c2cc1NC(=O)c1cnn(C(F)(F)F)c1 ?
Response line: 2.7

Prompt line: Then what about the compound COc1cc2ncnc(-c3cn(C)nc3-c3ccccc3)c2cc1-c1cnc2c(ccn2C)c1 ?
Response line: 4.5

---

# reported IC50; entries follow
Biological target: pEGFR (Tyr1068) in PC-9 cells (Ex19Del) (Homo sapiens (Human), UniProt P00533, DEL746-750)
Test: PC-9 pEGFR AlphaLISA assay
Format: cell-based
Conditions: 4 hours incubation, p-EGFR (Tyr1068) AlphaLISA, read-out: Ext pEGFR_PC-9 Ex19Del IC50
Procedure: PC-9/A431 pEGFR AlphaLISA Assays Inhibitory effects of compounds were evaluated in cellular assays that measure level of intracellular phosphorylation of EGFR in PC-9 (ECACC, #90071810, Milipore/Sigma) and A431 cell lines (ATCC, CRL-1555) using AlphaLISA sureFire ultra p-EGFR (Tyr1068) assay kit (PerkinElmer, ALSU-PEGFR-A50K). […] On the next day, the plate was read the Envision using standard AlphaLisa settings. […]
Respond with a number, then the unit of measure.

COc1cc2ncnc(-c3cn(C)nc3-c3ccccc3)c2cc1OC(=O)N1[C@@H](C)COC[C@@H]1C :: 13.7 nM
COc1cc2ncnc(-c3cn(CC(F)F)nc3-c3ccccc3)c2cc1OCCCN1CCOCC1 :: 0.8 nM

Prompt line: IC50 lookup needed for CCOc1cc2ncnc(-c3cn(CC(F)F)nc3-c3ccccc3)c2cc1OC , thanks.
Response line: 1.3 nM

Prompt line: Also COc1cc2ncnc(-c3cn(C)nc3-c3ccccc3)c2nc1O[C@H](C)c1nccs1 , if possible.
Response line: 1.2 nM

Prompt line: Thanks! And COc1cc2ncnc(-c3cn(CCO)nc3-c3ccccc3)c2nc1NC(=O)C12CC(C1)C2 ?
Response line: 1.2 nM

Prompt line: Repeat with COc1cc2ncnc(-c3cn(C)nc3-c3ccccc3)c2nc1NC(=O)C1(OC)CC1
Response line: 4.6 nM

---

Target: pEGFR (Tyr1068) in PC-9 cells (Ex19Del) (Homo sapiens (Human), UniProt P00533, DEL746-750)
Assay: PC-9 pEGFR AlphaLISA assay
Details: 4 hours incubation, p-EGFR (Tyr1068) AlphaLISA, read-out: Ext pEGFR_PC-9 Ex19Del IC50
readout: IC50 (nM)
Lab book: enter the figure in nM, no units written.

Answered cases to consult:
COc1cc2ncnc(-c3cn(C)nc3-c3ccccc3)c2cc1NC(=O)[C@@H]1CCCN1C (single isomer, unassigned) :: 4.4
COc1cc2ncnc(-c3cn(C)nc3-c3ccccc3)c2cc1NC(=O)[C@H]1C[C@H]1C :: 0.7
COc1cc2ncnc(-c3cn(C)nc3-c3ccccc3)c2cc1NC(=O)C12COCC1C2 (stereo not shown) :: 7.8
Cn1cc(-c2ncnc3cc(OC4CC4)c(NC(=O)[C@]45COCC4C5)nc23)c(-c2ccccc2)n1 (stereo partly shown) :: 1.2
COc1cc2ncnc(-c3cn(C)nc3-c3ccc(F)cc3F)c2nc1NC(=O)[C@]12C[C@H]1CN(C)C2 (single isomer, unassigned) :: 1.5
COc1cc2ncnc(-c3cn(C)nc3-c3ccccc3F)c2nc1NC(=O)C1(C(F)F)CC1 :: 1.4

Please find the next compound below.
Prompt line: IC50 lookup needed for COc1cc2ncnc(-c3cn(C)nc3-c3ccccc3)c2nc1NC(=O)c1cccc(F)c1 , thanks.
Response line: 3.8

---

Target: EGFR (d746-750) (Homo sapiens (Human), UniProt P00533, DEL746-750)
Assay: Biochemical EGFR inhibition assay, EGFR (d746-750)
Settings: Caliper mobility shift; 1.0 mM ATP or ATP Km; read-out: Enz EGFR_Exon19-del746-750 IC50
Protocol: Reactions proceeded until between 10% to 20% total peptides were phosphorylated at room temperature (25° C.) and were terminated with 35 mM 2,2′,2″,2″-(ethane-1,2-diyldinitrilo)tetraacetic acid (EDTA). Product was detected using the Caliper mobility shift detection method where the phosphorylated peptide (product) and substrate were electrophoretically separated and measured. Percent activity was plotted against log concentration of compound and points to generate an apparent IC50.
readout: pIC50
// pIC50: -log10(molar conc.)

See these solved cases before continuing.
COc1cc2ncnc(-c3cn(C)nc3-c3ccccc3)c2cc1O[C@H]1CCN(C)C[C@@H]1F :: 8.72
COc1cc2ncnc(-c3cn(C)nc3-c3ccccc3)c2cc1C1=CCN(C)C1 :: 8.72
COc1cc2ncnc(-c3cn(C)nc3-c3ccccc3F)c2nc1NC(=O)C12CC(N(C)C)(C1)C2 :: 8.92
CN(C)CCOc1cc2ncnc(-c3cn(C)nc3-c3ccccc3)c2nc1NC(=O)C1(C(F)(F)F)CC1 :: 8.70
COc1cc2ncnc(-c3cn(C)nc3-c3ccccc3)c2nc1OC(C)c1cccnc1F (centres unmarked) :: 9.00
Cn1cc(-c2ncnc3cc(OC(F)F)c(NC(=O)C4CC4)cc23)c(-c2ccccc2)n1 :: 8.74

Prompt line: // lookup pIC50 for COc1cc2ncnc(-c3cn(C)nc3-c3ccccc3)c2cc1N
Response line: 9.10

Prompt line: Can you check COc1cc2ncnc(-c3cnn(CC(F)F)c3-c3ccc(F)cc3)c2cc1C1(O)CC1 next?
Response line: 6.63
